Ref: patent US20150104459A1

molecular target: recombinant soluble homotrimeric HA, A/chicken/Vietnam/NCVD-016/08 (H5N1) (influenza A virus A/chicken/Vietnam/NCVD-016/2008 (H5N1)); experiment: microarray, trimeric HA, transfection supernatant; details: remark: other sources report otherwise
assay.readout: Trimeric HA Binding RLU (RLU)
Give your result in RLU as a bare value.

# example entries with known answers
| binder | unit.abbrev | observed.value |
| --- | --- | --- |
| TCN-558 (5248_H10b) (antibody, V domains shown) VH: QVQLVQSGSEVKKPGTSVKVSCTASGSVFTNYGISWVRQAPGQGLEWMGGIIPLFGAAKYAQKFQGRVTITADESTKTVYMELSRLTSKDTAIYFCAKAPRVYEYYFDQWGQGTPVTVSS VL: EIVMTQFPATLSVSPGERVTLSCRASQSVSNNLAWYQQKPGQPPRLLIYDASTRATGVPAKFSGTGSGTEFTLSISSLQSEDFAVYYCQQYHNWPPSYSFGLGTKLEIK | RLU | 33400 |
| TCN-550 (5096_F06) (antibody, V domains shown) VH: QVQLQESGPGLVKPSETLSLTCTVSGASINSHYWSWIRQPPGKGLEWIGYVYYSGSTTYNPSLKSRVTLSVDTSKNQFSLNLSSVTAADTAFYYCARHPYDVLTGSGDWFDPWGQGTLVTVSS VL: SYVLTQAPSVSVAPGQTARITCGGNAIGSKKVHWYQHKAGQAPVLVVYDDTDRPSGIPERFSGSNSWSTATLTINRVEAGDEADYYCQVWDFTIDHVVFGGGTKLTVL | RLU | 1800 |

Please look at the following binder next.
## Input Reported Trimeric HA Binding RLU for TCN-552 (5249_I23) (antibody, V domains shown) VH: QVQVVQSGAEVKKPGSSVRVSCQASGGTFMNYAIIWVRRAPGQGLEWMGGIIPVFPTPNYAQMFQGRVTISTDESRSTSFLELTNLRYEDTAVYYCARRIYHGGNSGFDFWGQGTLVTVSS VL: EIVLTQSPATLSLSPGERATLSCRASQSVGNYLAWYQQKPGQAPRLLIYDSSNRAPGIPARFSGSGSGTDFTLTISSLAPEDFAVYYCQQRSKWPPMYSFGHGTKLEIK : what is it?
## Output 34500
